Entries and their IC50 at 48 h
- assay-overview: Cytotoxicity against African green monkey Vero cells incubated for 48 hrs
- Type: toxicity, cell-based
- recorded-conditions: African green monkey (Chlorocebus sabaeus)
metric: IC50 at 48 h

# cpd-smiles, value-measured
measured = [
    ("C[C@]12CC[C@H]3[C@@H](CC=C4C[C@@H](O)CC[C@@]43C)[C@@H]1CC[C@@H]2[C@@](C)(O)CN=[N+]=[N-]", "> 12 µM"),
    ("CC(=O)O[C@H]1CC[C@@]2(C)C(=CC[C@H]3[C@@H]4CC[C@H]([C@H](C)NCc5cn(C/C=C(\\C)CCC=C(C)C)nn5)[C@@]4(C)CC[C@@H]32)C1", "> 8.67 µM"),
    ("COC(=O)c1cn(C[C@](C)(O)[C@H]2CC[C@H]3[C@@H]4CC=C5C[C@@H](O)CC[C@]5(C)[C@H]4CC[C@@]32C)nn1", "> 10.6 µM"),
    ("C[C@]12CC[C@H]3[C@@H](CC=C4C[C@@H](O)CC[C@@]43C)[C@@H]1CC[C@@H]2[C@@](C)(O)Cn1cc(-c2ccccc2)nn1", "> 10.5 µM"),
    ("C#CCN[C@@H](C)[C@H]1CC[C@H]2[C@@H]3CC=C4C[C@@H](OC(C)=O)CC[C@]4(C)[C@H]3CC[C@]12C", "> 11.9 µM"),
    ("CCOC(=O)Cn1cc(CN[C@@H](C)[C@H]2CC[C@H]3[C@@H]4CC=C5C[C@@H](OC(C)=O)CC[C@]5(C)[C@H]4CC[C@]23C)nn1", "> 9.49 µM"),
    ("C#CCNC[C@](C)(O)[C@H]1CC[C@H]2[C@@H]3CC=C4C[C@@H](O)CC[C@]4(C)[C@H]3CC[C@@]21C", "> 12.3 µM"),
    ("CCCCCCCCn1cc(CNC[C@](C)(O)[C@H]2CC[C@H]3[C@@H]4CC=C5C[C@@H](O)CC[C@]5(C)[C@H]4CC[C@@]32C)nn1", "> 9.24 µM"),
    ("CC(=O)O[C@H]1CC[C@@]2(C)C(=CC[C@H]3[C@@H]4CC[C@H]([C@@H](C)NCc5cn(CCCc6ccccc6)nn5)[C@@]4(C)CC[C@@H]32)C1", "> 8.95 µM"),
    ("CC(=O)O[C@H]1CC[C@@]2(C)C(=CC[C@H]3[C@@H]4CC[C@H]([C@H](C)NCc5cn(Cc6ccccc6)nn5)[C@@]4(C)CC[C@@H]32)C1", "> 9.42 µM"),
    ("C[C@]12CC[C@H]3[C@@H](CC=C4C[C@@H](O)CC[C@@]43C)[C@@H]1CC[C@@H]2[C@@](C)(O)CNCc1cn(CCCc2ccccc2)nn1", "> 9.14 µM"),
    ("CC(C)=CCC/C(C)=C/Cn1cc(CN[C@H](C)[C@H]2CC[C@H]3[C@@H]4CC=C5C[C@@H](O)CC[C@]5(C)[C@H]4CC[C@]23C)nn1", "> 9.35 µM"),
    ("CCOC(=O)Cn1cc(CN[C@@H](C)[C@H]2CC[C@H]3[C@@H]4CC=C5C[C@@H](O)CC[C@]5(C)[C@H]4CC[C@]23C)nn1", "> 10.3 µM"),
    ("CC(C)=CCC/C(C)=C/Cn1cc(CN[C@@H](C)[C@H]2CC[C@H]3[C@@H]4CC=C5C[C@@H](O)CC[C@]5(C)[C@H]4CC[C@]23C)nn1", "> 9.35 µM"),
    ("CC(=O)O[C@H]1CC[C@@]2(C)C(=CC[C@H]3[C@@H]4CC[C@H]([C@H](C)NCc5cn(CCCc6ccccc6)nn5)[C@@]4(C)CC[C@@H]32)C1", "> 8.95 µM"),
    ("CCOC(=O)Cn1cc(CN[C@H](C)[C@H]2CC[C@H]3[C@@H]4CC=C5C[C@@H](O)CC[C@]5(C)[C@H]4CC[C@]23C)nn1", "> 10.3 µM"),
    ("CCCCCCCCn1cc(CN[C@H](C)[C@H]2CC[C@H]3[C@@H]4CC=C5C[C@@H](O)CC[C@]5(C)[C@H]4CC[C@]23C)nn1", "> 9.79 µM"),
    ("C[C@@H](NCc1cn(Cc2ccccc2)nn1)[C@H]1CC[C@H]2[C@@H]3CC=C4C[C@@H](O)CC[C@]4(C)[C@H]3CC[C@]12C", "> 10.2 µM"),
    ("C[C@H](NCc1cn(Cc2ccccc2)nn1)[C@H]1CC[C@H]2[C@@H]3CC=C4C[C@@H](O)CC[C@]4(C)[C@H]3CC[C@]12C", "> 10.2 µM"),
    ("C[C@@H](NCc1cn(CCCc2ccccc2)nn1)[C@H]1CC[C@H]2[C@@H]3CC=C4C[C@@H](O)CC[C@]4(C)[C@H]3CC[C@]12C", "> 9.42 µM"),
    ("C[C@]12CC[C@H]3[C@@H](CC=C4C[C@@H](O)CC[C@@]43C)[C@@H]1CC[C@@H]2[C@@](C)(O)Cn1cc(CCO)nn1", "> 11.3 µM"),
    ("C[C@]12CC[C@H]3[C@@H](CC=C4C[C@@H](O)CC[C@@]43C)[C@@H]1CC[C@@H]2[C@@](C)(O)Cn1cc(CCCc2ccccc2)nn1", "> 9.66 µM"),
    ("CCOC(=O)Cn1cc(CN[C@H](C)[C@H]2CC[C@H]3[C@@H]4CC=C5C[C@@H](OC(C)=O)CC[C@]5(C)[C@H]4CC[C@]23C)nn1", "> 9.49 µM"),
]

---

Listed next: entries and their corresponding IC50 at 48 h.
- assay-overview: Cytotoxicity against African green monkey Vero cells incubated for 48 hrs
- Assay type: toxicity, cell-based
- recorded-conditions: African green monkey (Chlorocebus sabaeus)
metric: IC50 at 48 h

# cpd-smiles, metric, value-measured
measured = [
    ("C[C@]12CC[C@H]3[C@@H](CC=C4C[C@@H](O)CC[C@@]43C)[C@@H]1CC[C@@H]2[C@@](C)(O)CNCc1cn(Cc2ccccc2)nn1", "IC50 at 48 h", "> 9.64 µM"),
    ("CCCCCCCCn1cc(CN[C@H](C)[C@H]2CC[C@H]3[C@@H]4CC=C5C[C@@H](OC(C)=O)CC[C@]5(C)[C@H]4CC[C@]23C)nn1", "IC50 at 48 h", "> 9.04 µM"),
    ("C[C@H](NCc1cn(CCCc2ccccc2)nn1)[C@H]1CC[C@H]2[C@@H]3CC=C4C[C@@H](O)CC[C@]4(C)[C@H]3CC[C@]12C", "IC50 at 48 h", "> 9.68 µM"),
    ("C#CCN[C@H](C)[C@H]1CC[C@H]2[C@@H]3CC=C4C[C@@H](OC(C)=O)CC[C@]4(C)[C@H]3CC[C@]12C", "IC50 at 48 h", "> 11.9 µM"),
    ("CCOC(=O)Cn1cc(CNC[C@](C)(O)[C@H]2CC[C@H]3[C@@H]4CC=C5C[C@@H](O)CC[C@]5(C)[C@H]4CC[C@@]32C)nn1", "IC50 at 48 h", "> 9.71 µM"),
    ("CCCCCCCCn1cc(CN[C@@H](C)[C@H]2CC[C@H]3[C@@H]4CC=C5C[C@@H](OC(C)=O)CC[C@]5(C)[C@H]4CC[C@]23C)nn1", "IC50 at 48 h", "> 9.04 µM"),
    ("CCCCCCCCn1cc(CN[C@@H](C)[C@H]2CC[C@H]3[C@@H]4CC=C5C[C@@H](O)CC[C@]5(C)[C@H]4CC[C@]23C)nn1", "IC50 at 48 h", "> 9.79 µM"),
    ("CC(=O)O[C@H]1CC[C@@]2(C)C(=CC[C@H]3[C@@H]4CC[C@H]([C@@H](C)NCc5cn(Cc6ccccc6)nn5)[C@@]4(C)CC[C@@H]32)C1", "IC50 at 48 h", "> 7.16 µM"),
]

---

- assay-overview: Selectivity index, ratio of IC50 for cytotoxicity against African green monkey Vero cells to IC50 for antileishmanial activity against Leishmania donovani S1 promastigotes assessed as parasite growth inhibition
- Assay type: toxicity, cell-based
- recorded-conditions: read-out: Ratio IC50
Each record here notes measured selectivity ratio.

# cpd-smiles, selectivity ratio
records = [
    ("CCCCCCCCn1cc(CNC[C@](C)(O)[C@H]2CC[C@H]3[C@@H]4CC=C5C[C@@H](O)CC[C@]5(C)[C@H]4CC[C@@]32C)nn1", "> 6.33"),
    ("CCCCCCCCn1cc(CN[C@@H](C)[C@H]2CC[C@H]3[C@@H]4CC=C5C[C@@H](O)CC[C@]5(C)[C@H]4CC[C@]23C)nn1", "> 6.67"),
    ("C[C@]12CC[C@H]3[C@@H](CC=C4C[C@@H](O)CC[C@@]43C)[C@@H]1CC[C@@H]2[C@@](C)(O)CNCc1cn(CCCc2ccccc2)nn1", "> 8.77"),
    ("N=C(N)c1ccc(OCCCCCOc2ccc(C(=N)N)cc2)cc1", 7.6),
    ("CC(C)=CCC/C(C)=C/Cn1cc(CN[C@@H](C)[C@H]2CC[C@H]3[C@@H]4CC=C5C[C@@H](O)CC[C@]5(C)[C@H]4CC[C@]23C)nn1", "> 5.56"),
    ("C[C@@H](NCc1cn(CCCc2ccccc2)nn1)[C@H]1CC[C@H]2[C@@H]3CC=C4C[C@@H](O)CC[C@]4(C)[C@H]3CC[C@]12C", "> 5"),
    ("CC(=O)O[C@H]1CC[C@@]2(C)C(=CC[C@H]3[C@@H]4CC[C@H]([C@H](C)NCc5cn(Cc6ccccc6)nn5)[C@@]4(C)CC[C@@H]32)C1", "> 3.7"),
    ("CC(C)=CCC/C(C)=C/Cn1cc(CN[C@H](C)[C@H]2CC[C@H]3[C@@H]4CC=C5C[C@@H](O)CC[C@]5(C)[C@H]4CC[C@]23C)nn1", "> 8.2"),
    ("CC(=O)O[C@H]1CC[C@@]2(C)C(=CC[C@H]3[C@@H]4CC[C@H]([C@@H](C)NCc5cn(C/C=C(\\C)CCC=C(C)C)nn5)[C@@]4(C)CC[C@@H]32)C1", 0.84),
    ("C[C@@H](NCc1cn(Cc2ccccc2)nn1)[C@H]1CC[C@H]2[C@@H]3CC=C4C[C@@H](O)CC[C@]4(C)[C@H]3CC[C@]12C", "> 1.67"),
    ("C[C@H](NCc1cn(CCCc2ccccc2)nn1)[C@H]1CC[C@H]2[C@@H]3CC=C4C[C@@H](O)CC[C@]4(C)[C@H]3CC[C@]12C", "> 7.14"),
    ("CCOC(=O)Cn1cc(CN[C@@H](C)[C@H]2CC[C@H]3[C@@H]4CC=C5C[C@@H](O)CC[C@]5(C)[C@H]4CC[C@]23C)nn1", "> 1.61"),
]
